study target: UniProt P61964
pIC50: −log10 of the molar value.

structure as smiles	pIC50
O=C(O)c1ccc2ccccc2c1-c1c(C(=O)O)ccc2ccccc12	5.22

###

Each item that follows carries a reported Kd.
study target: WD repeat-containing protein 5 (Homo sapiens, UniProt P61964)

structure as smiles	Kd
CN1CCN(c2ccc([N+](=O)[O-])cc2NC(=O)Cc2ccccc2)CC1	> 10 µM
CC(=O)Nc1cc([N+](=O)[O-])ccc1N1CCN(C)CC1	> 10 µM
CN1CCN(c2ccc([N+](=O)[O-])cc2NC(=O)c2ccc(F)cc2Cl)CC1	0.63 µM
COc1cc(C(=O)Nc2cc([N+](=O)[O-])ccc2N2CCN(C)CC2)ccc1F	0.68 µM
Cc1cccc(C(=O)Nc2cc([N+](=O)[O-])ccc2N2CCN(C)CC2)c1Cl	1.1 µM
CN1CCN(c2ccc(N)cc2NC(=O)c2ccccc2Cl)CC1	> 10 µM
COC(=O)c1ccc(N2CCN(C)CC2)c(NC(=O)c2ccccc2Cl)c1	6.6 µM
O=C(Nc1cc([N+](=O)[O-])ccc1F)c1ccccc1Cl	> 20 µM
CN1CCN(c2ccc([N+](=O)[O-])cc2NC(=O)c2cccc(O)c2)CC1	> 10 µM
CN(C)C1CCN(c2ccc([N+](=O)[O-])cc2NC(=O)c2ccccc2Cl)CC1	> 20 µM
O=C(Nc1cc([N+](=O)[O-])ccc1N1CCNCC1)c1ccccc1Cl	> 20 µM
CN1CCN(c2ccc([N+](=O)[O-])cc2NC(=O)c2ccco2)CC1	> 10 µM

###

Reported Kd for target or system WD repeat-containing protein 5 (Homo sapiens), by entry.

structure as smiles	output unit	op	Kd
O=C(Nc1cc([N+](=O)[O-])ccc1N1CCCCC1)c1ccccc1Cl	µM	>	20
CN1CCN(c2ccc([N+](=O)[O-])cc2NC(=O)c2ccccc2)CC1	µM	=	5.8
CN1CCN(c2ccc(-c3ccncc3)cc2NC(=O)c2ccccc2Cl)CC1	µM	=	2.2
CN1CCN(c2ccc(C(F)(F)F)cc2NC(=O)c2ccccc2Cl)CC1	µM	>	10
CCN1CCN(c2ccc([N+](=O)[O-])cc2NC(=O)c2ccccc2Cl)CC1	µM	>	20
